# study system: pancreatic cholesterol esterase (Sus scrofa)
# Sequence (A0A286ZKB1 96-682): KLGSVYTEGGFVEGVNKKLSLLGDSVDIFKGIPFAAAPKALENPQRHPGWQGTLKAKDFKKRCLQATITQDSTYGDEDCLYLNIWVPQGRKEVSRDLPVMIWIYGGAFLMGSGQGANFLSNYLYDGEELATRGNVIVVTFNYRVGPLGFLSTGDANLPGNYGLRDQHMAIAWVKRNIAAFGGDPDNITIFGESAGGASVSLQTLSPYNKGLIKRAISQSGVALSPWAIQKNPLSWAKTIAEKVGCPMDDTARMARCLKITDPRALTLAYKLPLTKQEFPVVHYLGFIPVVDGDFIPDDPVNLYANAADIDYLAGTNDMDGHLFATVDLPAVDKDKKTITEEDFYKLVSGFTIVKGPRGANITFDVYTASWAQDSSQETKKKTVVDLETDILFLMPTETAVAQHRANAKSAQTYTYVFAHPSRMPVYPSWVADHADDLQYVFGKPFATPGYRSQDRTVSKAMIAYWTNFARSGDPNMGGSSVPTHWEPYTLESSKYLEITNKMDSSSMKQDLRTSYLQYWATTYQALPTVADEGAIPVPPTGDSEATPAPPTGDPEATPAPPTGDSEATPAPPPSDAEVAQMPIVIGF
pIC50: −log10 of the molar value.
# pIC50 per record follows
value kind: pIC50

• Oc1cc(O)c2c(c1)OC(c1ccc(O)c(O)c1)C(O)C2 (single isomer, unassigned; (+)) [(+)-Catechin] = < 3.46
• Oc1cc(O)c2c(c1)O[C@H](c1ccc(O)c(O)c1)[C@H](O)C2 [(–)-epicatechin] = < 3.46
• O=C(O)c1cc(O)c(O)c(O)c1 [gallic acid] = < 3.23
